FYI, the data here is from paper PMC5540273.

System: RSK3(Kin.Dom.1-N-terminal)
Construct: gene RPS6KA2
Details: concentration: 1 μM, replicates: in singlicate; n = 1

Molecule: Cl.NC(=O)c1cccc(Nc2nccc(Nc3ccc(Oc4cccc(Cl)c4)c(Cl)c3)n2)c1
Study system: RSK3(Kin.Dom.1-N-terminal)
%Inh / %: 0
--
Molecule: CCn1c(-c2cccnc2O)nc2cnccc21
Study system: RSK3(Kin.Dom.1-N-terminal)
%Inh / %: 0
--
Molecule: Cl.c1ccc(-c2n[nH]cc2-c2ccnc(-c3ccc(CN4CCOCC4)cc3)c2)nc1
Study system: RSK3(Kin.Dom.1-N-terminal)
%Inh / %: 0
--
Molecule: COc1cc(Nc2nccc(N3CCC(NC(=O)Nc4cc(C)ccc4C)C3)n2)cc(OC)c1OC (centres unmarked)
Study system: RSK3(Kin.Dom.1-N-terminal)
%Inh / %: 9
--
Molecule: CC(C)(C)c1ccc(C(=O)Nc2cn3cc(-c4cccnc4)ccc3n2)cc1
Study system: RSK3(Kin.Dom.1-N-terminal);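 also: KINOMEscan kinase panel screen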
%Inh / %: 13
